- System: SW-620 colon
- measurement_protocol: NCI tumour cell line growth inhibition, 48 h
measurement_type: TGI

Below are worked cases with known answers.
Cc1ccc2c(c1)C(C)Cc1c(ncnc1-n1cnc3ccccc31)N2C (centres undefined)	17 µM
C[C@@H]1COCCN1c1cc(C2([S@](C)(=N)=O)CC2)nc(-c2ccnc3[nH]ccc23)n1	> 100 µM
Cc1cccc(NC(=O)CCc2ccc(N3C(N)=NC(N)=NC3(C)C)cc2)c1	> 100 µM

Value wanted: TGI (SW-620 colon) of entry NC(Cc1ccc(S(=O)(=O)O)cc1)C(=O)NC(CCCCNC(=O)NCCCCC(NC(=O)C(N)Cc1ccc(S(=O)(=O)O)cc1)C(=O)NC(Cc1ccc(S(=O)(=O)O)cc1)C(=O)O)C(=O)NC(Cc1ccc(S(=O)(=O)O)cc1)C(=O)O (centres undefined)
> 100 µM

Could you share what TGI was measured for N#Cc1c(N2CCCC2)nsc1NCc1ccccc1 , tested on SW-620 colon?
> 100 µM

GET /values?readout=TGI&system=SW-620 colon&item= CCCCCCCC1C(C)c2c([nH]c3ccccc23)C2C(=O)N(c3ccc(OC)cc3)C(=O)C21 (centres undefined)
> 8.94 µM

Form field - read-out: TGI; system: SW-620 colon; submitted item: CC(NS(=O)(=O)c1ccc([N+](=O)[O-])cc1)C(=O)O (centres undefined)
> 100 µM

Value wanted: TGI (SW-620 colon) of entry CO/N=C(\C)c1ccc(Nc2c3ccccc3nc3occc23)cc1
18.9 µM

* * *

Collected TGI values appear next to each entry.
- Test system: HOP-18 NSCLC
- measurement_protocol: NCI tumour cell line growth inhibition, 48 h
The response must be a number in µM with no trailing unit.

Some compounds with recorded TGI:
CN(C)CCOc1cccc2c1C(=O)c1ccccc1C2=O	46.9
O=C[C@@H](CO)O[C@H](C=O)c1c[nH]c(=O)[nH]c1=O	267

GET /values?readout=TGI&item= CC1(C)CC23C4COC(=O)C2CCC1C3CC4=O (configuration not stated)
5.11

Dear colleague, I am looking for the recorded TGI of the following compound: CC(C)/C=C1\CCC(CN2CCCC2)C1=O (configuration not stated)
17.3

I'd like to know its TGI. The compound in question is CC[C@]1(O)C[C@H]2CN(CCc3c([nH]c4ccccc34)[C@@](C(=O)OC)(c3cc4c(cc3OC)N(C=O)[C@H]3[C@@](O)(C(=O)OC)[C@H](OC(C)=O)[C@]5(CC)C=CCN6CC[C@]43[C@@H]65)C2)C1
87.3

* * *

- Test system: EKVX NSCLC
- measurement_protocol: NCI tumour cell line growth inhibition, 48 h
Each record here notes measured GI50.

C/C(=N\NC(=O)c1sc(=S)n(C)c1N)c1cc2ccccc2o1	11.9 µM

Look at this compound and give its reported GI50. Clc1ccc(CSC(Cn2ccnc2)c2ccc(Cl)cc2Cl)cc1 (stereo not given)
1.53 µM

Fill in the blank: the reported GI50 of COC(=O)CCC(=O)C(=O)OC is ____.
20600 µM

// GI50 lookup, key: COc1cc2c3c(n(CCCN)c(=O)c2cc1OC)-c1ccccc1C3=O
3.85 µM

Please report the recorded GI50 for N#Cc1c(-c2ccccc2)nc(SCC2CO2)nc1N1CCOCC1 (stereo not given) .
4.73 µM

Sample COc1cc2c(cc1O)CC[C@@H]1[C@@H]2CC[C@]2(C)[C@@H](NCCN(C)C)CC[C@@H]12 — what was its GI50?
0.341 µM
